assay-system: human EP3 (isoform VI) (Homo sapiens)
Sequence (P43115 whole entry, looked up, canonical isoform): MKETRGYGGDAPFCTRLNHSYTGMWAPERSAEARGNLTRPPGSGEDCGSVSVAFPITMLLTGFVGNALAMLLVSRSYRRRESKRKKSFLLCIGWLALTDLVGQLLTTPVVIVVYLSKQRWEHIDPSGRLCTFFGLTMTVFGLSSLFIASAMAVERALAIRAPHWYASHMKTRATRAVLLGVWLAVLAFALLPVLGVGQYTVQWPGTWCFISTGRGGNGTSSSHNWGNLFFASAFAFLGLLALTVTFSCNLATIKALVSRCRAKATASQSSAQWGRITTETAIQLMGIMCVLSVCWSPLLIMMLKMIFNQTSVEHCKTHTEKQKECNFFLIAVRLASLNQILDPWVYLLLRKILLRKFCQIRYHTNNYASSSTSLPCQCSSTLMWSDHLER
protocol-notes: In vitro binding to human EP3, [3H]-PGE2 displacement on membranes
applied-conditions: HEK293 membranes, n = 1, read-out: hEP3, Ki
assay-readout: Ki

Q) For human EP3 (isoform VI) (Homo sapiens), give Ki of the listed compound: Cc1ccc(N2CCC(O)CC2)nc1C(=O)Nc1c(C)cc(C(=O)O)cc1C
A) > 14 µM

---

assay-system: human EP2 (Homo sapiens (Human), UniProt P43116)
Sequence (P43116 whole entry): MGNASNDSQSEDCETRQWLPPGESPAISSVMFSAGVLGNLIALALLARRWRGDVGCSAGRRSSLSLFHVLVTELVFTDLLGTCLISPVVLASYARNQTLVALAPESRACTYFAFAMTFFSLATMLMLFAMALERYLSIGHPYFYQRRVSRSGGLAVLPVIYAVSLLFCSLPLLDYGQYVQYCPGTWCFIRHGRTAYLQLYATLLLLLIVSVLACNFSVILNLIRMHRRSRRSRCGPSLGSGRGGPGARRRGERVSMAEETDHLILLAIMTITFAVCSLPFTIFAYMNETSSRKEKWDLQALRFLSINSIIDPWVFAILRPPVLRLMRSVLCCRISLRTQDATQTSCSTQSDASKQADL
assay-readout: Ki

Q) // Input: Cc1ccc(N2CCC(O)CC2)nc1C(=O)Nc1c(C)cc(C(=O)O)cc1C [Example 1] . Output its Ki only.
A) > 18.9 µM

---

assay-system: rat EP4 (Rattus norvegicus (Rat), UniProt P43114)
Sequence (P43114 whole entry): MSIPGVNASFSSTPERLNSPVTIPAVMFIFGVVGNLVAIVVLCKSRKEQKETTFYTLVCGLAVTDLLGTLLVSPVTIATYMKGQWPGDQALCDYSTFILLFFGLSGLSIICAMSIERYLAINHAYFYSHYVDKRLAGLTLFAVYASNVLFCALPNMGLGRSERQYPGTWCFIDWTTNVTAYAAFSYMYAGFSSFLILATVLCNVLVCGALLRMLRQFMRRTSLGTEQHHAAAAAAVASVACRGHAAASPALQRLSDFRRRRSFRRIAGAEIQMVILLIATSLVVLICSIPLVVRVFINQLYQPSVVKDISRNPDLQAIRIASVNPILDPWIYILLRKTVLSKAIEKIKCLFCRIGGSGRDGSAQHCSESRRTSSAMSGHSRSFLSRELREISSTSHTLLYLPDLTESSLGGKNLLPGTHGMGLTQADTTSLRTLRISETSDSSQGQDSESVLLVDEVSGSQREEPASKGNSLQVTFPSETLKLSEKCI
protocol-notes: In vitro rat EP4 functional antagonist activity (PGE2-stimulated cAMP, HTRF)
Type: cell-based
applied-conditions: inhibition of PGE2-stimulated (EC80) cAMP production, HEK293 cells expressing rat EP4; read-out: IC50 measured at rat EP4
assay-readout: IC50 (nM)
Report as a plain number; the unit nM is understood.

Q) // Input: Cc1ccc(N2CCC(O)CC2)nc1C(=O)Nc1c(C)cc(C(=O)O)cc1C [Example 1] . Output its IC50 only.
A) 12

---

assay-system: human EP4 (Homo sapiens (Human), UniProt P35408)
protocol-notes: In vitro human EP4 functional antagonist activity (PGE2-stimulated cAMP, HTRF)
Type: cell-based
applied-conditions: read-out: IC50 measured at human EP4
Sequence (P35408 whole entry): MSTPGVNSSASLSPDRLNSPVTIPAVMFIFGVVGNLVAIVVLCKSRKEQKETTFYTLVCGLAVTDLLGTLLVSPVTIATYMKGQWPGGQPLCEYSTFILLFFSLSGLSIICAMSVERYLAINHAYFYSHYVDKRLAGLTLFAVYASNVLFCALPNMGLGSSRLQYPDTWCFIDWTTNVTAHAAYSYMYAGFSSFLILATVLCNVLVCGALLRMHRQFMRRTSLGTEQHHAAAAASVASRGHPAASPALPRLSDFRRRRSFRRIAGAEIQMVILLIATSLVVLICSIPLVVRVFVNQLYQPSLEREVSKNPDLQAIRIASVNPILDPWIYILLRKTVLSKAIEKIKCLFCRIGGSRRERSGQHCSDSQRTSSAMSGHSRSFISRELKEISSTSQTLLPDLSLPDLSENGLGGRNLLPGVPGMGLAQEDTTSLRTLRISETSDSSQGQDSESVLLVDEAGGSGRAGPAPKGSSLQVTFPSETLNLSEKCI
assay-readout: IC50 (nM)
Report as a plain number; the unit nM is understood.

Q) // Input: Cc1ccc(N2CCC(O)CC2)nc1C(=O)Nc1c(C)cc(C(=O)O)cc1C [Example 1] . Output its IC50 only.
A) 5.6

---

assay-system: human EP4 (Homo sapiens (Human))
protocol-notes: In vitro antagonist activity in human whole blood (reversal of PGE2 inhibition of LPS-induced TNFα production)
Type: cell-based
applied-conditions: read-out: IC50 measured at human EP4, human blood TNFα induction assay
Sequence (P35408 whole entry, looked up): as the sequence (P35408 whole entry) above
assay-readout: IC50 (nM)
Report as a plain number; the unit nM is understood.

Q) // Input: Cc1ccc(N2CCC(O)CC2)nc1C(=O)Nc1c(C)cc(C(=O)O)cc1C [Example 1] . Output its IC50 only.
A) 123
